Record: pKd reported on BCL-xL (Homo sapiens, UniProt Q07817).
Sequence (Q07817 whole entry, species assumed): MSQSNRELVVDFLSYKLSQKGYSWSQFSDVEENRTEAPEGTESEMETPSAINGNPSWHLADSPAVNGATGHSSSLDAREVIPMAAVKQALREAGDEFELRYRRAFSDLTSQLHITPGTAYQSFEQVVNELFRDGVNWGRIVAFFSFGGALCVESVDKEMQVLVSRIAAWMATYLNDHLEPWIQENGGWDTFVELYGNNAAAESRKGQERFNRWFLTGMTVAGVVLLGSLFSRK
pKd: −log10 of the molar value.

Use these answered entries as a reference point.
| compound | assay.readout | result |
| --- | --- | --- |
| CCOP(=O)(CCN1CCN(CC(CSc2ccccc2)Nc2ccc(S(=O)(=O)NC(=O)c3ccc(N4CCN(CC5=C(c6ccc(Cl)cc6)CCC(C)(C)C5)CC4)cc3)cc2S(=O)(=O)C(F)(F)F)CC1)OCC (stereo not shown) | pKd | 8.00 to 9.00 |
| CCOP(=O)(CN1CCN(CC[C@H](CSc2ccccc2)Nc2ccc(S(=O)(=O)NC(=O)c3ccc(N4CCN(Cc5ccccc5-c5ccc(Cl)cc5)CC4)cc3)cc2S(=O)(=O)C(F)(F)F)CC1)OCOC(=O)OC(C)C (stereo partly shown) | pKd | > 9.00 |
| CCOP(=O)(CCCN1CCN(CC[C@H](CSc2ccccc2)Nc2ccc(S(=O)(=O)NC(=O)c3ccc(N4CCN(CC5=C(c6ccc(Cl)cc6)CCC(C)(C)C5)CC4)cc3)cc2S(=O)(=O)C(F)(F)F)CC1)OCC | pKd | > 9.00 |

Please find the next compound below.
Report pKd for CCOP(=O)(CC1CCN(CC[C@H](CSc2ccccc2)Nc2ccc(S(=O)(=O)NC(=O)c3ccc(N4CCN(CC5=C(c6ccc(Cl)cc6)CCC(C)(C)C5)CC4)cc3)cc2S(=O)(=O)C(F)(F)F)CC1)OCOC(=O)C(C)(C)C (stereo partly shown) tested on BCL-xL (Homo sapiens, UniProt Q07817). > 9.00

###

Record: Kd reported on BCL-2 (Homo sapiens, UniProt P10415).
Sequence (P10415 whole entry, species assumed): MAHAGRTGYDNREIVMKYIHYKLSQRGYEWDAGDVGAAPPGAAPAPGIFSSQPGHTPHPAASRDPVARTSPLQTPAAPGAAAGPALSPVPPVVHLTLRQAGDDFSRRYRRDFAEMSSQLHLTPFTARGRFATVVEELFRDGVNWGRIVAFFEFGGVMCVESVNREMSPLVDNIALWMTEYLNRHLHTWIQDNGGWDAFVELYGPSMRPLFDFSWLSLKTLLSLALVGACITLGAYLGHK

Please look up its Kd: CC1(C)CCC(c2ccc(Cl)cc2)=C(CN2CCN(c3ccc(C(=O)NS(=O)(=O)c4ccc(N[C@H](CCN5CCC(CP(=O)(OCOC(=O)C(C)(C)C)OCOC(=O)C(C)(C)C)CC5)CSc5ccccc5)c(S(=O)(=O)C(F)(F)F)c4)cc3)CC2)C1 1 to 10 nM

Please look up its Kd: CCOP(=O)(CN1CCN(CC[C@H](CSc2ccccc2)Nc2ccc(S(=O)(=O)NC(=O)c3ccc(N4CCN(CC5=C(c6ccc(Cl)cc6)CCC(C)(C)C5)CC4)cc3)cc2S(=O)(=O)C(F)(F)F)CC1)OC(C)(C)C (stereo partly drawn) > 50 nM

Please look up its Kd: CC(C)OP(=O)(CN1CCN(CC[C@H](CSc2ccccc2)Nc2ccc(S(=O)(=O)NC(=O)c3ccc(N4CCN(CC5=C(c6ccc(Cl)cc6)CCC(C)(C)C5)CC4)cc3)cc2S(=O)(=O)C(F)(F)F)CC1)OC(C)C < 1 nM

###

Overview of reported pEC50 across a group of molecules:
tested on: IMR-90 SnC (irradiated senescent IMR90 cells); test: Senolysis assay (CellTiter-Glo viability); type: cell-based, human; conditions: Homo sapiens, IMR-90, light or radiation study, 72 h; X-ray irradiated senescent IMR90 cells, viability three days after compound addition
pEC50: −log10 of the molar value.

Use these answered entries as a reference point.
| molecule | result |
| --- | --- |
| CC1(C)CCC(c2ccc(Cl)cc2)=C(CN2CCN(c3ccc(C(=O)NS(=O)(=O)c4ccc(N[C@H](CCN5CCN(CP(=O)(O)O)CC5)CSc5ccccc5)c(S(=O)(=O)C(F)(F)F)c4)cc3)CC2)C1 | < 5.00 |
| CCOP(=O)(CCN1CCN(CC(CSc2ccccc2)Nc2ccc(S(=O)(=O)NC(=O)c3ccc(N4CCN(CC5=C(c6ccc(Cl)cc6)CCC(C)(C)C5)CC4)cc3)cc2S(=O)(=O)C(F)(F)F)CC1)OCC (stereo not drawn) | 5.00 to 6.00 |
| CCOP(=O)(O)CCN1CCN(CC[C@H](CSc2ccccc2)Nc2ccc(S(=O)(=O)NC(=O)c3ccc(N4CCN(CC5=C(c6ccc(Cl)cc6)CCC(C)(C)C5)CC4)cc3)cc2S(=O)(=O)C(F)(F)F)CC1 | < 5.00 |
| CCOP(=O)(CCCN1CCN(CC[C@H](CSc2ccccc2)Nc2ccc(S(=O)(=O)NC(=O)c3ccc(N4CCN(CC5=C(c6ccc(Cl)cc6)CCC(C)(C)C5)CC4)cc3)cc2S(=O)(=O)C(F)(F)F)CC1)OCOC(=O)OC(C)C (stereo partly drawn) | 5.00 to 6.00 |
| CCOP(=O)(CN1CCN(CC[C@H](CSc2ccccc2)Nc2ccc(S(=O)(=O)NC(=O)c3ccc(N4CCN(Cc5ccccc5-c5ccc(Cl)cc5)CC4)cc3)cc2S(=O)(=O)C(F)(F)F)CC1)OCC | 5.00 to 6.00 |

Please find the next molecule below.
Please look up its pEC50: CCOP(=O)(CN1CCN(CC[C@H](CSc2ccccc2)N(c2ccc(S(=O)(=O)NC(=O)c3ccc(N4CCN(CC5=C(c6ccc(Cl)cc6)CCC(C)(C)C5)CC4)cc3)cc2S(=O)(=O)C(F)(F)F)S(C)(=O)=O)CC1)OCC 5.00 to 6.00
